Assay: Primary qHTS for inhibitors of nuclear receptor binding SET domain protein 2 (NSD2) in an isogenic RCH-ACV NSD2 p.E1099K mutant (9B) (AID 1645876); note: nearly all actives have a fitted effect of over 70% in size; note: potency is the fitted concentration of half-maximal effect
Details: RCH-ACV (leukaemia line) NSD2 E1099K (9B) viability, CellTiter-Glo, 72 h; series mostly up to 44.9 µM
Records with an inconclusive call do not appear. Calls of active or inactive are those of the source. Calls come from the whole dose curve; as a rule, active = well fitted inhibition curve with a large enough effect; inconclusive = small, poorly fitted or top-dose-only effect; inactive = flat fitted curve, though single readings scatter.
Observable: Potency

- Compound: "O=c1c2ccccc2nc2n1CCc1c-2[nH]c2ccccc12"
  Result value: "inactive"
- Compound: "Cc1cc(Nc2cc(NC(=O)c3c(Cl)cccc3Cl)ccn2)nc(N)n1"
  Result value: "0.417 µM (active)"
- Compound: "CC(C)(C)c1cc(NC(=O)Nc2ccc(-c3cn4c(n3)sc3cc(OCCN5CCOCC5)ccc34)cc2)no1"
  Result value: "inactive"
- Compound: "COc1ccc(C(=O)CC2(O)C(=O)Nc3c(Cl)ccc(Cl)c32)cc1 (stereo not drawn)"
  Result value: "2.58 µM (active)"

If you can, please state the reported Potency value of C[C@]12CC[C@H](O)CC1=CCC1C2CC[C@]2(C)C(n3cnc4ccccc43)=CCC12 (stereo partly drawn) . inactive

Query COc1cc(C(=O)NS(=O)(=O)c2ccccc2C)ccc1Cc1cn(C)c2ccc(NC(=O)OC3CCCC3)cc12 next inactive

Query CC(=O)SC[C@@H](C)C(=O)N1CCC[C@H]1C(=O)N[C@@H](Cc1ccccc1)C(=O)O next inactive

Query C[C@@]12O[C@@H](C[C@]1(O)CO)n1c3ccccc3c3c4c(c5c6ccccc6n2c5c31)CNC4=O next 0.0661 µM (active)
